Target: DR3 (DRA*0101/DRB1*0301) (Homo sapiens, UniProt P01903+P01911, A100K/A102G/A103R/A169T/F55Y/I96L/K41T/L162R/M171V/P40S/Q125H/Q178H/Q39Y/R42S/S66N/T106N/T262R/W38E/Y61H)
Construct: DRA*01011-181LZFos; DRB1*03011-190LZJunBSP; made in house
Experiment: Direct LOCI peptide-MHC-II binding assay, DR3
Each item that follows carries a reported Kd.

- query_smiles: "CC[C@H](C)[C@H](N)C(=O)N[C@H](C(=O)N[C@@H](Cc1ccccc1)C(=O)N[C@@H](CCSC)C(=O)N[C@@H](Cc1c[nH]c2ccccc12)C(=O)N[C@@H](C)C(=O)N[C@H](C(=O)N[C@@H](Cc1c[nH]cn1)C(=O)N[C@@H](Cc1c[nH]cn1)C(=O)O)[C@@H](C)CC)C(C)C"
  Kd: "> 5000 nM"
- query_smiles: "CC(C)C[C@H](NC(=O)CNC(=O)[C@H](Cc1c[nH]c2ccccc12)NC(=O)CNC(=O)[C@@H](NC(=O)[C@@H]1CCCN1C(=O)[C@@H](NC(=O)[C@H](C)NC(=O)[C@H](CC(=O)O)NC(=O)[C@H](C)NC(=O)[C@H](Cc1ccccc1)NC(=O)[C@@H](NC(=O)[C@H](CCC(N)=O)NC(=O)[C@H](CS)NC(=O)[C@H](CC(C)C)NC(=O)[C@@H](N)Cc1ccc(O)cc1)C(C)C)[C@@H](C)O)[C@@H](C)O)C(=O)O"
  Kd: "69 nM"
- query_smiles: "CC[C@H](C)[C@H](NC(=O)[C@@H](N)Cc1ccc(O)cc1)C(=O)N[C@@H](CC(=O)O)C(=O)N[C@H](C(=O)N[C@@H](Cc1c[nH]c2ccccc12)C(=O)N[C@@H](CC(C)C)C(=O)NCC(=O)NCC(=O)N[C@@H](CC(C)C)C(=O)N[C@@H](C)C(=O)N[C@@H](CCC(=O)O)C(=O)N[C@@H](CC(N)=O)C(=O)N[C@@H](Cc1ccccc1)C(=O)N[C@@H](CC(C)C)C(=O)N1CCC[C@H]1C(=O)N[C@@H](Cc1ccc(O)cc1)C(=O)O)C(C)C"
  Kd: "> 5000 nM"
- query_smiles: "CC[C@H](C)[C@H](NC(=O)[C@@H](N)CCCCN)C(=O)N[C@@H](CC(C)C)C(=O)N[C@@H](CCC(=O)O)C(=O)N1CCC[C@H]1C(=O)N[C@@H](Cc1ccccc1)C(=O)N[C@@H](CCCNC(=N)N)C(=O)N[C@@H](CCCCN)C(=O)N[C@@H](Cc1ccc(O)cc1)C(=O)N[C@H](C(=O)N[C@@H](C)C(=O)N[C@@H](Cc1ccccc1)C(=O)N[C@H](C(=O)N[C@H](C(=O)N1CCC[C@H]1C(=O)O)[C@@H](C)CC)[C@@H](C)O)[C@@H](C)O"
  Kd: "18 nM"
